- measurement_target: Replicase polyprotein 1a (Severe acute respiratory syndrome coronavirus, UniProt P0C6U8)
IC50 strictly under 10 µM means condition met; at 10 µM or over means condition not met.

Example entries and their recorded answers appear below.
CC(C)=CCc1cc(-c2coc3cc(O)ccc3c2=O)ccc1O [Neobavaisoflavone (2)] | condition not met
O=c1ccc2cc3ccoc3cc2o1 [7H-furo[3,2-g]chromen-7-one] | condition not met
CC(C)=CCC/C(C)=C\Cc1cc(-c2coc3cc(O)ccc3c2=O)ccc1O [Corylifol A (6)] | condition not met
O=c1ccc2ccc3occc3c2o1 [2H-furo[2,3-h]chromen-2-one] | condition not met
CC(C)=CCc1c(O)ccc(C(=O)/C=C/c2ccc(O)cc2)c1O [Isobacachalcone] | condition met

Does the reported IC50 of the following compound sit strictly below 10 µM? CC(C)=CCc1cc2c(cc1O)oc(=O)c1c3ccc(O)cc3oc21 [Psoralidin (5)]
condition met

is_below(IC50, 10 µM) for COc1cc2c(cc1CC=C(C)C)C(=O)CC(c1ccc(O)cc1)O2 (stereo not drawn) [Bavachinin (1)] ?
condition not met
